Numbers sourced from ChEMBL document CHEMBL1142710.

Ki by entry:
targetOrTestSystem: Delta-type opioid receptor (Rattus norvegicus, UniProt P33533)
Sequence (P33533 whole entry): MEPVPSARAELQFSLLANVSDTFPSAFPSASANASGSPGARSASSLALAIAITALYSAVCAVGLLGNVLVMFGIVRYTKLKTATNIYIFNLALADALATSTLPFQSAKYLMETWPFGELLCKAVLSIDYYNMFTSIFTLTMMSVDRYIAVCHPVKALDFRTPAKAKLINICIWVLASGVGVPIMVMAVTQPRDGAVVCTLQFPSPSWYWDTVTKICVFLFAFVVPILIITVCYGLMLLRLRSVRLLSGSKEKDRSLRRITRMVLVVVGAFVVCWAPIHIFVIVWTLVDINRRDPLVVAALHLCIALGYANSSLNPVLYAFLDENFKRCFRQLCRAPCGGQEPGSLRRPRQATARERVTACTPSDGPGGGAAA
experimentalProtocol: Binding affinity against Opioid receptor delta 1 from rat brain membranes using [3H]DADLE
Write the numeric value and append its unit.

Below, each entry is followed by its recorded Ki result.
1. CC1c2c([nH]c3ccccc23)[C@H]2Oc3c(O)ccc4c3[C@@]23CCN(C)[C@H](C4)[C@H]13 (some centres undefined): 0.708 nM
2. C=C(C)CN1CC[C@]23c4c5ccc(O)c4O[C@@H]2c2[nH]c4ccccc4c2C(C)[C@H]3[C@H]1C5 (some centres undefined): 8.91 nM
3. O[C@@]12Cc3c([nH]c4ccccc34)[C@H]3Oc4c(-c5ccco5)ccc5c4[C@@]31CCN(CC1CC1)[C@@H]2C5: 955 nM

What does the data say about its Ki? Entry: "C=Cc1ccc2c3c1O[C@@H]1c4[nH]c5ccccc5c4C[C@@]4(O)[C@@H](C2)N(CC2CC2)CC[C@]314"
61.7 nM

----------
targetOrTestSystem: Kappa-type opioid receptor (Cavia porcellus)
experimentalProtocol: Binding affinity against Opioid receptor kappa 1 from guinea pig brain membranes using [3H]U-69593
recordedEndpoint: Ki (nM)
// units = nM; emit number, no label

Below, each entry is followed by its recorded Ki result.
1. COc1cccc2c1[C@]13CCN(CC4CC4)[C@H](C2)[C@]1(OC)CCC(=O)C3: 110
2. C/C=C/CN1CC[C@]23c4c5ccc(O)c4O[C@@H]2c2[nH]c4ccccc4c2C[C@@]3(O)[C@H]1C5: 955

Request - read-out Ki | tested on Kappa-type opioid receptor (Cavia porcellus) | compound CC1CN(CCCc2ccccc2)C2CC(N)CC1(c1cccc(O)c1)C2 (centres undefined)
123

Would you mind doing Oc1ccc2c3c1O[C@H]1c4nc(-c5ccccc5)ccc4C[C@@]4(O)C(C2)N(CC2CC2)CCC314 (some centres undefined) as well?
18.2

----------
targetOrTestSystem: Kappa-type opioid receptor (Cavia porcellus, UniProt P41144)
Sequence (P41144 whole entry): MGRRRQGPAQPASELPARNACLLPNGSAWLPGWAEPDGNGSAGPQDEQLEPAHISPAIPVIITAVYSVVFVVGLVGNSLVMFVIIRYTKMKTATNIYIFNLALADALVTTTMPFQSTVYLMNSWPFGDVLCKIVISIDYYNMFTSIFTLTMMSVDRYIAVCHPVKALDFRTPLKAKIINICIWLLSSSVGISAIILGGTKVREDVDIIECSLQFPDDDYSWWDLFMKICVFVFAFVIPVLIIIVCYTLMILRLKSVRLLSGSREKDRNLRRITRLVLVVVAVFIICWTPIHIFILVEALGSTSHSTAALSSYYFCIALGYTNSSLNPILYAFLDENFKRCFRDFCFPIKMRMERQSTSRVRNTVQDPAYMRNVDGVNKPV
experimentalProtocol: Binding affinity against Opioid receptor kappa 1 from guinea pig brain membranes using [3H]U-69593
recordedEndpoint: pKi
By convention, pKi is the negative base-10 log of a molar concentration.

Request - read-out pKi | tested on Kappa-type opioid receptor (Cavia porcellus, UniProt P41144) | molecule C=C(C)CN1CC[C@]23c4c5ccc(O)c4O[C@@H]2c2[nH]c4ccccc4c2C(C)[C@H]3[C@H]1C5 (some centres undefined)
6.07

----------
targetOrTestSystem: UniProt P33535
Sequence (P33535 whole entry): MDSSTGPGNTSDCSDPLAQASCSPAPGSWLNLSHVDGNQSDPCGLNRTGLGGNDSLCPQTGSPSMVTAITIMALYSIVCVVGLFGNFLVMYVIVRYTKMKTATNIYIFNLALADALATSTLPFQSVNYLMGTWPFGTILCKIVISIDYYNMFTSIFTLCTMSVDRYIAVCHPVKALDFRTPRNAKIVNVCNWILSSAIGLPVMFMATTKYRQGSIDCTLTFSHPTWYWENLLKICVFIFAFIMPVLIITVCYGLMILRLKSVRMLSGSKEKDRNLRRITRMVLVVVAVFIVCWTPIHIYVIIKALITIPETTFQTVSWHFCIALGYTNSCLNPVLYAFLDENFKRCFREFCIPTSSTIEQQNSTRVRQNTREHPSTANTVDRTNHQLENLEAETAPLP
experimentalProtocol: Affinity against opioid receptor mu 1 in rat brain membranes determined in a competitive binding assay using [3H]DAMGO as competitive ligand (Compound 62)
Format: cell membranes
recordedEndpoint: pKi
By convention, pKi is the negative base-10 log of a molar concentration.

What does the data say about its pKi? Entry: "C=C(C)CN1CC[C@]23c4c5ccc(O)c4O[C@@H]2c2[nH]c4ccccc4c2C[C@@]3(O)[C@H]1C5"
5.10

----------
targetOrTestSystem: Kappa-type opioid receptor (Cavia porcellus)
experimentalProtocol: Binding affinity against Opioid receptor kappa 1 from guinea pig brain membranes using [3H]U-69593
pKi by entry:
By convention, pKi is the negative base-10 log of a molar concentration.

Below, each entry is followed by its recorded pKi result.
1. CC(C)N1CC[C@]23c4c5ccc(O)c4O[C@@H]2c2[nH]c4ccccc4c2C[C@@]3(O)[C@H]1C5: 5.21
2. CCCCN1CC[C@]23c4c5ccc(O)c4O[C@@H]2c2[nH]c4ccccc4c2C[C@@]3(O)[C@H]1C5: 6.05
3. CN1CCC23c4c5ccc(O)c4O[C@H]2c2ncc(-c4ccc(Cl)cc4)cc2C[C@@]3(O)C1C5 (stereo partly drawn): 6.33
4. CC(C)CN1CC[C@]23c4c5ccc(O)c4O[C@@H]2c2[nH]c4ccccc4c2C[C@@]3(O)[C@H]1C5: 6.19
5. Oc1ccc2c3c1O[C@H]1c4[nH]c5ccccc5c4C[C@@]4(O)[C@@H](C2)N(CC2CC2)CC[C@]314: 7.57

What does the data say about its pKi? Entry: C=C(C)CN1CCC23c4c5ccc(O)c4O[C@H]2c2oc4ccccc4c2C[C@@]3(O)C1C5 (stereo partly drawn)
6.24

Would you mind doing "C=Cc1ccc2c3c1O[C@@H]1c4[nH]c5ccccc5c4C[C@@]4(O)[C@@H](C2)N(CC2CC2)CC[C@]314" as well?
4.75

Would you mind doing C=C(C)CN1CCC23c4c5ccc(O)c4O[C@H]2c2ncc(-c4ccc(Cl)cc4)cc2C[C@@]3(O)C1C5 (stereo partly drawn) as well?
6.52
